MEASURE_NAME: IC50 (µM)
Answer format: numeric, µM implied, no suffix.

The reported Acetylcholinesterase (Electrophorus electricus, UniProt O42275) IC50 of CC(C)=CCCC1(C)C=Cc2c(cc(O)c3c(=O)c4cccc(O)c4oc23)O1 (stereo unspecified) is 8.47

---

ASSAYED_TARGET: Acetylcholinesterase (Electrophorus electricus)
ASSAY_PROCEDURE: Competitive inhibition of electric eel acetyl cholinesterase measured for 3 mins by Ellman's method
MEASURE_NAME: Ki (nM)
Answer in nM, number only, no unit symbol.

Ki in this record for CC(C)=CCCC1(C)C=Cc2c(cc(O)c3c(=O)c4cccc(O)c4oc23)O1 (stereo unspecified) : 1900

---

ASSAYED_TARGET: Acetylcholinesterase (Homo sapiens, UniProt P22303)
Sequence (P22303 whole entry): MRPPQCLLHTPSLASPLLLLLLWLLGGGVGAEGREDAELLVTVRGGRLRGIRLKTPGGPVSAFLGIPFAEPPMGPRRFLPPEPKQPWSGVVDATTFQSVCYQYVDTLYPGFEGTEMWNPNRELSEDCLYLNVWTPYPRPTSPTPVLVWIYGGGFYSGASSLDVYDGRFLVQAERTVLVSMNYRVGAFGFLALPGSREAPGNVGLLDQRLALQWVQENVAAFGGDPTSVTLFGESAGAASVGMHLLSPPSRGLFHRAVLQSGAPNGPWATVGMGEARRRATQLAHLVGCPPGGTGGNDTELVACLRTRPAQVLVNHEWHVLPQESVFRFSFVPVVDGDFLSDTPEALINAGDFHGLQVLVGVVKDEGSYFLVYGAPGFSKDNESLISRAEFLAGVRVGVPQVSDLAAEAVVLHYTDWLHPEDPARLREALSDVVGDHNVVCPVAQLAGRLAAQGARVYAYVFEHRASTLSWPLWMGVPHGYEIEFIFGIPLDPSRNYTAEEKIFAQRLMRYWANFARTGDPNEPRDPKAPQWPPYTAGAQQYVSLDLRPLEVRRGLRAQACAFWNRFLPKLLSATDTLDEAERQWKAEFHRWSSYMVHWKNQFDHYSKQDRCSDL
ASSAY_PROCEDURE: Inhibition of recombinant human AChE assessed as hydrolysis of acetylthiocholine by Ellman's method
MEASURE_NAME: pKi
# pKi: negative log10 of molar concentration; output just the value

Kindly note the recorded pKi for COc1cc2cc(-c3ccc(CN(C)Cc4ccccc4)cc3)c(=O)oc2cc1OC , which is 7.35

Recorded pKi (compound COc1cc2cc(-c3ccc(C[N+](C)(C)Cc4ccccc4)cc3)c(=O)oc2cc1OC ): 7.98

COc1cc2cc(-c3ccc(CN(CCO)Cc4ccccc4)cc3)c(=O)oc2cc1OC yielded pKi of 7.98

# pKi of CCN(Cc1ccccc1)Cc1ccc(-c2cc3cc(OC)c(OC)cc3oc2=O)cc1 = 7.98

---

ASSAYED_TARGET: Acetylcholinesterase (Electrophorus electricus, UniProt O42275)
Sequence (O42275 whole entry): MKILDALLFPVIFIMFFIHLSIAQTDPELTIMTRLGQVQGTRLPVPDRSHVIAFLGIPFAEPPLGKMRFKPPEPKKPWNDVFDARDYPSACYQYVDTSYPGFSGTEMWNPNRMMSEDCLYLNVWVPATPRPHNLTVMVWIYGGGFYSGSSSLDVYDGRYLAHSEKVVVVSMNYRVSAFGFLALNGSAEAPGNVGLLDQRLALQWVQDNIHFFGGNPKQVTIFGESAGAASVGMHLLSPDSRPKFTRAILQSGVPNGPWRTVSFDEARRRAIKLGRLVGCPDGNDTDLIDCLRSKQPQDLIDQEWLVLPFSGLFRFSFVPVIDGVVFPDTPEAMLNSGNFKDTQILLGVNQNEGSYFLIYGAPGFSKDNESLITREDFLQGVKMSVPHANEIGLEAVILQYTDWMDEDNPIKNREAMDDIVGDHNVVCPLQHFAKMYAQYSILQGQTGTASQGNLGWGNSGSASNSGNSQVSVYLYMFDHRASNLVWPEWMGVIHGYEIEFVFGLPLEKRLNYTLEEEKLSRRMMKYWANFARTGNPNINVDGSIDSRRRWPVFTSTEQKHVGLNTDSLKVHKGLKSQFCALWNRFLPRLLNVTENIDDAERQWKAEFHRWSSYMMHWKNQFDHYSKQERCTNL
ASSAY_PROCEDURE: Inhibition of electric eel AChE (type VI-S) using acetylthiocholine iodide as substrate preincubated for 15 mins followed by substrate addition by Ellman's method
MEASURE_NAME: pKi
Lab note — pKi values are minus log10 of concentrations in M.

Form field pKi, entry CC(C)=CCCC1(C)C=Cc2c(cc(O)c3c(=O)c4cccc(O)c4oc23)O1 (stereo unspecified) : 5.46

---

ASSAY_PROCEDURE: Binding affinity to bovine 5-HT1B
Parameters: species or system Bos taurus
MEASURE_NAME: Ki (µM)
Note: unit µM is implicit; provide only the numeric part.

Looking up C1=C(CN2CCOCC2)COc2c1cccc2OCC1COCCN1 (stereo unspecified) , I see its Ki listed as 0.63

---

ASSAY_PROCEDURE: Therapeutic index, ratio of IC50 for human H9 cells to EC50 for HIV-1 3B in human H9 cells
Assay type: toxicity, cell-based
MEASUREMENT_CONTEXT: read-out: Ratio IC50/EC50
MEASURE_NAME: selectivity ratio
Write the value as a bare number.

Measured selectivity ratio of CC(C)=CCC/C(C)=C/CC[C@@]1(C)C=Cc2c(cc(C)c(C(=O)O)c2O)O1 : 3.71

The origin of these recorded values is ChEMBL document CHEMBL5252530.
